For each entry below, report its neutralization IC50 value.
SYSTEM_UNDER_TEST: HIV-1 Env of strain SC422661.8 (HIV-1)
ASSAY_REMARKS: cell-based or functional assay

Qu. Looking for the measured neutralization IC50 of NIH45-46^G54W IgG (antibody, name in Kabat numbering, V domains shown) VH: QVRLSQSGGQMKKPGESMRLSCRASGYEFLNCPINWIRLAPGRRPEWMGWLKPRWGAVNYARKFQGRVTMTRDVYSDTAFLELRSLTSDDTAVYFCTRGKYCTARDYYNWDFEHWGRGAPVTVSS VL: EIVLTQSPATLSLSPGETAIISCRTSQSGSLAWYQQRPGQAPRLVIYSGSTRAAGIPDRFSGSRWGADYNLSISNLESGDFGVYYCQQYEFFGQGTKVQVDI , can you help?
Ans. 0.03 µg/mL

Qu. Looking for the measured neutralization IC50 of NIH45-46 G54I IgG (antibody, name in Kabat numbering, V domains shown) VH: QVRLSQSGGQMKKPGESMRLSCRASGYEFLNCPINWIRLAPGRRPEWMGWLKPRIGAVNYARKFQGRVTMTRDVYSDTAFLELRSLTSDDTAVYFCTRGKYCTARDYYNWDFEHWGRGAPVTVSS VL: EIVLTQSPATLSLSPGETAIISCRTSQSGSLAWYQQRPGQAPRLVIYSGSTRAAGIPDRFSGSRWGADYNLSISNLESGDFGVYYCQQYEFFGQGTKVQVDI , can you help?
Ans. 0.1 µg/mL

Qu. Looking for the measured neutralization IC50 of NIH45-46^G54F IgG (antibody, name in Kabat numbering, V domains shown) VH: QVRLSQSGGQMKKPGESMRLSCRASGYEFLNCPINWIRLAPGRRPEWMGWLKPRFGAVNYARKFQGRVTMTRDVYSDTAFLELRSLTSDDTAVYFCTRGKYCTARDYYNWDFEHWGRGAPVTVSS VL: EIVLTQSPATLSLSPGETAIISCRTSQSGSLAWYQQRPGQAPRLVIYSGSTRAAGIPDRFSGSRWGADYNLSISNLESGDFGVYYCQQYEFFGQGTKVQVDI , can you help?
Ans. 0.02 µg/mL

Qu. Looking for the measured neutralization IC50 of NIH45-46^G54Y IgG (antibody, name in Kabat numbering, V domains shown) VH: QVRLSQSGGQMKKPGESMRLSCRASGYEFLNCPINWIRLAPGRRPEWMGWLKPRYGAVNYARKFQGRVTMTRDVYSDTAFLELRSLTSDDTAVYFCTRGKYCTARDYYNWDFEHWGRGAPVTVSS VL: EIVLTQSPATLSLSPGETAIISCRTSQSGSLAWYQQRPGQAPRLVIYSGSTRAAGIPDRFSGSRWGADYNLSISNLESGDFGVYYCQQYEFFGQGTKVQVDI , can you help?
Ans. 0.06 µg/mL
